# target-entity: chymotrypsin-like activity of the core particle (CP; 20S)
# assay-comment: Inhibition of chymotrypsin-like peptidase activity of the proteasome core particle
# measurement-conditions: read-out: IC50, inhibition of chymotrypsin-like activity of the core particle; FIG. 1B
readout-name: pIC50
Answers are plain numbers, as −log10 of the molar value.

Please supply the value of reported pIC50 for the item COc1cc(CCCOC(=O)C2CCCCN2C(=O)C(=O)C2CCCCC2)cc(OC)c1OC (stereo not shown) [B1]
7.72

---

# target-entity: 26S proteasome assembly
# assay-comment: Inhibition of proteinase activity of the 26S proteasome (casein-BODIPY degradation)
# measurement-conditions: read-out: IC50, inhibition of proteinase activity of the 26S proteasome assembly; model substrate casein-BODIPY; FIG. 1C
readout-name: IC50 (nM)
One number for each entry, in nM.

Using known records, supply IC50 for COc1cc(CCCOC(=O)C2CCCCN2C(=O)C(=O)C2CCCCC2)cc(OC)c1OC (stereo not shown)
41
